Target: Toll-like receptor 5 (Homo sapiens, UniProt O60602)
Sequence (O60602 whole entry): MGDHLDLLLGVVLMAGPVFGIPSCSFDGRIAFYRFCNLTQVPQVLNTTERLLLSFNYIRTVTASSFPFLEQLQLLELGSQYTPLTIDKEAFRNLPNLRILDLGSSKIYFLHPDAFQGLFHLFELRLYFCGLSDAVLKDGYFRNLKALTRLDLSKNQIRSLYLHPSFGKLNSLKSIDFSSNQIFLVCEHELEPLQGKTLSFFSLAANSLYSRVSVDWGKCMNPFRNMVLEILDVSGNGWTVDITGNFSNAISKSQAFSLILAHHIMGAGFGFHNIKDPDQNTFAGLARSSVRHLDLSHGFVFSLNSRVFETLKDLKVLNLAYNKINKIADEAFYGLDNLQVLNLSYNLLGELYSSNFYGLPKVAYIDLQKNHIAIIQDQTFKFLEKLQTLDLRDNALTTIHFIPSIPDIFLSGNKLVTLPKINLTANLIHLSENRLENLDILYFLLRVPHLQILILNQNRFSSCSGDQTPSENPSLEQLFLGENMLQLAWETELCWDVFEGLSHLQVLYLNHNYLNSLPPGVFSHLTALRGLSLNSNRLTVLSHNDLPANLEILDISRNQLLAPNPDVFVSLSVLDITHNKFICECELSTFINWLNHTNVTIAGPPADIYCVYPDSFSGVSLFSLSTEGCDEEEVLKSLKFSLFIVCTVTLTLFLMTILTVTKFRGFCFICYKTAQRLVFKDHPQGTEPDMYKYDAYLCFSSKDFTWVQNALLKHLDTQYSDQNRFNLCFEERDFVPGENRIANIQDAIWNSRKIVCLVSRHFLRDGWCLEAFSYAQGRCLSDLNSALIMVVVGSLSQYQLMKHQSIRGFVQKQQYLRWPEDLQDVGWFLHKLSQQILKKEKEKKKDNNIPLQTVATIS
Assay: Agonist activity at human TLR5 expressed in HEK293 cells assessed as induction of NF-kB activation-mediated SEAP production after 24 hrs by HTS assay

# molecule, EC50
records = [
    ("O=[N+]([O-])c1ccc(COc2cc3c(cc2OCc2ccc([N+](=O)[O-])cc2)OC2(C=C3)CCOCC2)cc1", "> 100 µM"),
]

----------
In this section we review reported fold change (FC) values for a set of compounds.
Target: Toll-like receptor 3 (Homo sapiens) (UniProt O15455)
Sequence (O15455 whole entry): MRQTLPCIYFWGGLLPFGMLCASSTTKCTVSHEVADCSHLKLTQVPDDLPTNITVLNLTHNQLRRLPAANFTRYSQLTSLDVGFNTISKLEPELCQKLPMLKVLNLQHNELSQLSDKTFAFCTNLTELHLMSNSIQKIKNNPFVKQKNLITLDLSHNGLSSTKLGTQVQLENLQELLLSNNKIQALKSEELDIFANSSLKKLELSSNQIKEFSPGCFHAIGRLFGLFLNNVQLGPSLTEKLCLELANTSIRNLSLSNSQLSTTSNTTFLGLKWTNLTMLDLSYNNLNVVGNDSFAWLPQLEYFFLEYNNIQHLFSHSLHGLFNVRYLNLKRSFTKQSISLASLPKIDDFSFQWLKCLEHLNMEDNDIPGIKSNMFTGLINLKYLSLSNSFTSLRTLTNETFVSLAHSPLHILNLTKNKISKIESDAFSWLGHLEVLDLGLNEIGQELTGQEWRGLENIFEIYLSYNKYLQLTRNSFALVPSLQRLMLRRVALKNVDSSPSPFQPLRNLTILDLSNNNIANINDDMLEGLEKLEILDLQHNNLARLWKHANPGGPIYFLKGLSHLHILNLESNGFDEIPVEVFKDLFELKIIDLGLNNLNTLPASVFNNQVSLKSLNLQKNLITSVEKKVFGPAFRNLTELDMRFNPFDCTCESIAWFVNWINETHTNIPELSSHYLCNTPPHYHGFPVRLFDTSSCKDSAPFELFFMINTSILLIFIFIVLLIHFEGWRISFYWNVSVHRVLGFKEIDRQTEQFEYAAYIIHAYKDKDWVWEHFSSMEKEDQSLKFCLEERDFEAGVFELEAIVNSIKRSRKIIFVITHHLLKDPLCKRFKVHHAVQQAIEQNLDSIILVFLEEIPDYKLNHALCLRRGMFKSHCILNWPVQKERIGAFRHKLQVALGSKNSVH
Assay: Agonist activity at human TLR3 expressed in HEK293 cells assessed as induction of NF-kB activation-mediated SEAP production at 25 uM after 24 hrs by HTS assay relative to control
Assay type: cell-based

# molecule, fold change (FC)
rows = [
    ("O=[N+]([O-])c1ccc(COc2cc3c(cc2OCc2ccc([N+](=O)[O-])cc2)OC2(C=C3)CCCC2)cc1", 1.22),
    ("CC1(C)CC(=O)c2cc(OCc3ccc([N+](=O)[O-])c(F)c3)c(OCc3ccc([N+](=O)[O-])c(F)c3)cc2O1", 1.22),
    ("CC1(C)C=Cc2cc(OC(=O)c3ccc([N+](=O)[O-])cc3)c(OC(=O)c3ccc([N+](=O)[O-])cc3)cc2O1", 1.65),
    ("COc1cc2c(cc1OCc1ccc([N+](=O)[O-])cc1)C=CC(C)(C)O2", 1.19),
    ("CC1(C)CC(=O)c2cc(OCc3ccc(C(F)(F)F)cc3)c(OCc3ccc(C(F)(F)F)cc3)cc2O1", 1.19),
    ("CC1(C)C=Cc2cc(O)c(OCc3ccc([N+](=O)[O-])cc3)cc2O1", 1.17),
    ("CC1(C)C=Cc2cc(OCc3ccc([N+](=O)[O-])c(F)c3)c(OCc3ccc([N+](=O)[O-])c(F)c3)cc2O1", 1.24),
    ("CC1(C)C=Cc2cc(OCc3ccc(C(F)(F)F)cc3)c(OCc3ccc(C(F)(F)F)cc3)cc2O1", 0.99),
]

----------
Target: Toll-like receptor 2 (Homo sapiens, UniProt O60603)
Sequence (O60603 whole entry): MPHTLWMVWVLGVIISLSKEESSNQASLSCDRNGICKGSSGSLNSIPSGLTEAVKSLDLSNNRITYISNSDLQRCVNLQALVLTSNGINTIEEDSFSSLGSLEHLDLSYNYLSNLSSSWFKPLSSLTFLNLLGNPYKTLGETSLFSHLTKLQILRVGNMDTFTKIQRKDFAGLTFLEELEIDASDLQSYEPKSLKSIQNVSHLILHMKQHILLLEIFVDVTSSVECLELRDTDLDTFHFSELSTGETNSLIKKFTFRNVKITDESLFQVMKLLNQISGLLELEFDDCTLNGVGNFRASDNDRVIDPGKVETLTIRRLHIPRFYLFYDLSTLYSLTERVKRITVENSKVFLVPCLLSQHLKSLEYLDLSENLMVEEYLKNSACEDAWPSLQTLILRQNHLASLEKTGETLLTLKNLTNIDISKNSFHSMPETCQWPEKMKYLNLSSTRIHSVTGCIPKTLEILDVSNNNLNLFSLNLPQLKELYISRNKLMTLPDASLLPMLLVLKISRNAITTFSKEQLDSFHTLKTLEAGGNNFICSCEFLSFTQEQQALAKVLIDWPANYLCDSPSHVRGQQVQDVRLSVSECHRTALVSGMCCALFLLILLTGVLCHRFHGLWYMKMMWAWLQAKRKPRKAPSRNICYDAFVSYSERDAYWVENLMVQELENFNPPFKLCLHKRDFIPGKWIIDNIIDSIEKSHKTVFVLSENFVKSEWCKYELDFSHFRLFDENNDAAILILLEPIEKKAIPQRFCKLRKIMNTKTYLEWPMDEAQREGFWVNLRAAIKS
Assay: Agonist activity at human TLR2 expressed in HEK293 cells assessed as induction of NF-kB activation-mediated SEAP production after 24 hrs by HTS assay
pEC50: −log10 of the molar value.

# molecule, assayed system, pEC50
measured = [
    ("O=[N+]([O-])c1ccc(COc2cc3c(cc2OCc2ccc([N+](=O)[O-])cc2)OC2(C=C3)CCOCC2)cc1", "Toll-like receptor 2 (Homo sapiens, UniProt O60603)", "< 4.00"),
]

----------
Biological target: Toll-like receptor 4 (Homo sapiens)
Sequence (O00206 whole entry): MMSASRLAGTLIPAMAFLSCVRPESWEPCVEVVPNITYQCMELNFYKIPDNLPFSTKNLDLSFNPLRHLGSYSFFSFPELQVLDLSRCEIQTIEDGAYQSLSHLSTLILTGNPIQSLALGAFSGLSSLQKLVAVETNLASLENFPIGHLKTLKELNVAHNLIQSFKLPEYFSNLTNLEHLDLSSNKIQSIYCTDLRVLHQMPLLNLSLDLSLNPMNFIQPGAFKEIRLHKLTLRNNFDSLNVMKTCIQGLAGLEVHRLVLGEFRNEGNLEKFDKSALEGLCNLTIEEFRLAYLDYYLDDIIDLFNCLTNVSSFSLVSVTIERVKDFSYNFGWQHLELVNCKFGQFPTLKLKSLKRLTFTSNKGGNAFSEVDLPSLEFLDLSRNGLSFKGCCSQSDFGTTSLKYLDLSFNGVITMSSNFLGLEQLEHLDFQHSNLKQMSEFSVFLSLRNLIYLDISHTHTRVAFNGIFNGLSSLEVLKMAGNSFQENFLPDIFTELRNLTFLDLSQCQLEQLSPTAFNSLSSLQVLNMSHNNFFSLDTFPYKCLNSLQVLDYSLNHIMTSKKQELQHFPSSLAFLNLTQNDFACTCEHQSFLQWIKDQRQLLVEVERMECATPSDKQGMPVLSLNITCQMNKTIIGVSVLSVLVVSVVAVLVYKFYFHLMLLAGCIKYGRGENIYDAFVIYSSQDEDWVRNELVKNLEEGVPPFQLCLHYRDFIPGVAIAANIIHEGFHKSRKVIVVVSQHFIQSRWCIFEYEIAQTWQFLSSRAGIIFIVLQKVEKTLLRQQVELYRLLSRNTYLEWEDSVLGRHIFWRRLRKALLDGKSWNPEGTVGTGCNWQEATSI
Experiment: Agonist activity at human TLR4 expressed in HEK293 cells assessed as induction of NF-kB activation-mediated SEAP production after 24 hrs by HTS assay
pEC50: −log10 of the molar value.

# molecule, pEC50
measured = [
    ("O=[N+]([O-])c1ccc(COc2cc3c(cc2OCc2ccc([N+](=O)[O-])cc2)OC2(C=C3)CCOCC2)cc1", "< 4.00"),
]

----------
Molecular target: Toll-like receptor 3 (Homo sapiens) (UniProt O15455)
Test: Agonist activity at human TLR3 expressed in HEK293 cells assessed as induction of NF-kB activation-mediated SEAP production at 25 uM after 24 hrs by HTS assay relative to control
Type: cell-based
Reported values of fold change (FC) for individual entries
readout: fold change (FC)

# compound, observed measurement
records = [
    ("CC1(C)C=Cc2cc(OCc3ccccc3[N+](=O)[O-])c(OCc3ccccc3[N+](=O)[O-])cc2O1", 1.08),
    ("CC1(C)CC(O)c2cc(OCc3ccc(F)c(F)c3)c(OCc3ccc(F)c(F)c3)cc2O1 (stereo not drawn)", 0.95),
    ("CC1(C)C=Cc2cc(OCc3cccc([N+](=O)[O-])c3)c(OCc3cccc([N+](=O)[O-])c3)cc2O1", 1.1),
    ("CC1(C)CC(=O)c2cc(OCc3ccc([N+](=O)[O-])cc3)c(OCc3ccc([N+](=O)[O-])cc3)cc2O1", 1.76),
    ("CC1(C)CC(O)c2cc(OCc3ccc([N+](=O)[O-])c(F)c3)c(OCc3ccc([N+](=O)[O-])c(F)c3)cc2O1 (stereo not drawn)", 2.34),
    ("O=[N+]([O-])c1ccc(COc2cc3c(cc2OCc2ccc([N+](=O)[O-])cc2)OC2(C=C3)CCOCC2)cc1", 13.9),
    ("CC1(C)CC(=O)c2cc(OCc3ccc(F)c(F)c3)c(OCc3ccc(F)c(F)c3)cc2O1", 1.22),
    ("CC1(C)C=Cc2cc(OCc3ccccc3)c(OCc3ccccc3)cc2O1", 1.09),
]
